# MEASURED_TARGET: human mAChR M4 (Homo sapiens, UniProt P08173)
# Sequence (P08173 1-479): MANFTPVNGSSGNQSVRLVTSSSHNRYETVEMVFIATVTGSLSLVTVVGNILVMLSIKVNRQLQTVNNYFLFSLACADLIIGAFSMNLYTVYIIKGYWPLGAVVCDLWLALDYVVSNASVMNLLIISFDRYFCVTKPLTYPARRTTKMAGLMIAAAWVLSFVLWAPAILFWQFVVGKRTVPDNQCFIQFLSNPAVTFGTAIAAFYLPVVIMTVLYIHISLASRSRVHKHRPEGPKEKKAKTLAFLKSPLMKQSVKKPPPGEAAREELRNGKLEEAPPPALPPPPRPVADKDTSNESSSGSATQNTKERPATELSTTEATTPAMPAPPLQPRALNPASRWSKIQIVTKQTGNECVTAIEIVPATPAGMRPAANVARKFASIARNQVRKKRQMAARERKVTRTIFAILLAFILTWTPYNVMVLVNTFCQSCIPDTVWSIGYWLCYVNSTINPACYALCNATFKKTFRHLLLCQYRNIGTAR
# ASSAY_NAME: mAChR M4 cell-based functional assay (calcium flux), human M4
# ASSAY_CONDITIONS: Table 10; % ACh maximum at 30 μM
Structures can show the parent of a compound that is named as a salt.

| MOLECULE | Emax [%] |
| --- | --- |
| Cc1nnc2sc3c(NCc4ccc(F)c(C(=O)NC5CC5(C)C)c4)ncnc3c2c1C (stereo not shown) [Compound 181] | 96.5 |
| Cc1nnc2oc3c(NC4CC4)ncnc3c2c1C [Compound 302] | 66.5 |
| Cc1nnc2sc3c(NCc4ccc(C(C)(C)O)cc4F)ncnc3c2c1C [Compound 107] | 78.8 |
| CNC(=O)c1cc(CNc2ncnc3c2sc2nnc(C)c(C)c23)ccc1F [Compound 187] | 87.6 |
| Cc1c(Cl)cnc2sc3c(N4CCC(F)C4)ncnc3c12 (stereo not shown) [Compound 220] | 63.8 |
| Cc1nc2sc3c(NC4CCC4)ncnc3c2c(C)c1Cl [Compound 266, hydrochloride] | 55.5 |
| Cc1nnc2sc3c(NCc4ccc(C(=O)N5CCCCC5)cc4)ncnc3c2c1C [Compound 125] | 93.1 |
| Cc1nnc2sc3c(NC4CC5(C4)CN(C(=O)CC(F)(F)F)C5)ncnc3c2c1C [Compound 168] | 29 |
| Cc1cc(C)c2c(n1)sc1c(NC3CN(c4ncc(C(F)(F)F)cn4)C3)ncnc12 [Compound 207] | 51.5 |
| Cc1nnc2sc3c(NCc4ccc(-c5ccn(C)n5)cc4)ncnc3c2c1C [Compound 192] | 85.9 |

* * *

# MEASURED_TARGET: human mAChR M4 (Homo sapiens, UniProt P08173)
# ASSAY_NAME: mAChR M4 cell-based functional assay (calcium flux), human M4
# ASSAY_CONDITIONS: Human M4 EC50 (nM), Table 10; calcium flux, PAM activity with EC20 acetylcholine

| COMPOUND | EC50 / nM |
| --- | --- |
| Cc1nnc2oc3c(NCc4ccc(C5(O)CCC5)cc4)ncnc3c2c1C [Compound 298] | 862 |
| Cc1c(Cl)cnc2sc3c(N4CC(F)(F)C4)ncnc3c12 [Compound 223] | 931 |
| Cc1c(Cl)cnc2sc3c(NC4(C)CC4)ncnc3c12 [Compound 226] | 481 |
| Cc1nnc2sc3c(N4CC(Nc5ccnc(F)c5F)C4)ncnc3c2c1C [Compound 161, trifluoroacetic acid] | 84.3 |
